Provide the reported pEC50 of each item.
- measured_target: recombinant GPR52 (Homo sapiens, UniProt Q9Y2T5)
- Sequence (Q9Y2T5 whole entry): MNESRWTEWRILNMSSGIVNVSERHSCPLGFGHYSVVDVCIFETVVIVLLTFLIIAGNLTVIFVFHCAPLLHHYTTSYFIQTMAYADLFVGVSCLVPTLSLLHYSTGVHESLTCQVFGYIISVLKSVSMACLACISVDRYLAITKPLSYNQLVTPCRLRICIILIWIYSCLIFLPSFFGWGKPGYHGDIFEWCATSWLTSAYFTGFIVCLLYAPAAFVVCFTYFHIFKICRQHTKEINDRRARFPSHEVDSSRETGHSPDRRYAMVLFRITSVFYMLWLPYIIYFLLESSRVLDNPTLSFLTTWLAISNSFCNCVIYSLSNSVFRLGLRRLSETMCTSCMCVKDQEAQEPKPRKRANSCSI
- test_method_notes: HTRF cAMP assay for direct cAMP measurement
- settings: mean EC50; CHO-K1 or HEK293 cells stably expressing recombinant GPR52
Answers are plain numbers, as −log10 of the molar value.

Examples with their reported pEC50 follow.
- CC(=O)c1cc(Cc2ccnc(N3CCc4c(C(=O)NCCO)cccc43)c2)ccc1F: 7.97
- NC(=O)c1cccc2c1CCN2c1cc(Cc2cccc(OC(F)(F)F)c2)ccn1: 7.64
- CC(=O)c1cccc(Cc2ccnc(N3CCc4c(C(N)=O)cccc43)c2)c1: 7.95

Query: # get_value(readout='pEC50', item= O=C(NCCO)c1cccc2c1CCN2c1cc(Cc2cc(F)c(F)c(F)c2)ccn1 )
Reply: 8.05

---

- measured_target: recombinant GPR52 (Homo sapiens)
- test_method_notes: HTRF cAMP assay for direct cAMP measurement
- settings: mean EC50; CHO-K1 or HEK293 cells stably expressing recombinant GPR52
parameter: pEC50
Give bare numbers, as −log10 of the molar value.

Quick batch: pEC50 for everything below.
1. CN(C)Cc1cccc(Cc2ccnc(N3CCc4c(C(N)=O)cccc43)c2)c1
2. COc1ccc(Cc2ccnc(N3CCc4c(C(=O)NCCOCCO)cccc43)c2)cc1F
3. O=C(NCCN1CCNC1=O)c1cccc2c1CCN2c1cc(Cc2cc(F)c(F)c(F)c2)ccn1

Reply:
[5.43, 8.07, 7.74]

Quick batch: pEC50 for everything below.
1. O=C(NCCO)c1cccc2c1CCN2c1cc(Cc2cc(F)cc(Cl)c2)ccn1
2. N#Cc1cc(Cc2ccnc(N3CCc4c(C(N)=O)cccc43)c2)ccc1F
3. COc1ccc(Cc2ccnc(N3CCc4c(C(N)=O)cccc43)c2)cc1F
4. O=C(N[C@@H]1CCOC1=O)c1cccc2c1CCN2c1cc(Cc2cc(F)c(F)c(F)c2)ccn1
5. O=C(NCCO)c1c(F)ccc2c1CCN2c1cc(Cc2cc(F)c(F)c(F)c2)ccn1

Reply:
1. 8.01
2. 7.93
3. 8.25
4. 6.85
5. 7.52

---

Provide the reported pEC50 of each item.
- measured_target: recombinant GPR52 (Homo sapiens, UniProt Q9Y2T5)
- test_method_notes: HTRF cAMP assay for direct cAMP measurement
- settings: mean EC50; CHO-K1 or HEK293 cells stably expressing recombinant GPR52
Give bare numbers, as −log10 of the molar value.

* CNC(=O)CCNC(=O)c1cccc2c1CCN2c1cc(Cc2cc(F)c(F)c(F)c2)ccn1 [Compound 172] | 7.74
* O=C(NCCO)c1cccc2c1CCN2c1cc(Oc2cc(F)cc(C(F)(F)F)c2)ccn1 [Compound 23] | 7.01
* O=C(N[C@H]1CCOC1)c1cccc2c1CCN2c1ccnc(Cc2cccc(C(F)(F)F)c2)c1 [Compound 3] | 7.99

Quick batch: pEC50 for everything below.
1. O=C(NC[C@H](O)CO)c1cccc2c1CCN2c1cc(Cc2cc(F)cc(C(F)(F)F)c2)ccn1 [Compound 31]
2. O=C(NC[C@H](O)c1cccnc1)c1cccc2c1CCN2c1cc(Cc2cc(F)c(F)c(F)c2)ccn1 [Compound 148]
3. Cc1cc(Cc2cccc(C(F)(F)F)c2)cc(N2CCc3c(C(N)=O)cccc32)n1 [Compound 17]
4. Cc1cc(Cc2ccnc(N3CCc4c(C(N)=O)cccc43)c2)cnc1F [Compound 50]
5. COC[C@@H](O)CNC(=O)c1cccc2c1CCN2c1cc(Cc2cc(F)cc(Cl)c2)ccn1 [Compound 168]

Reply:
1. 7.14
2. 7.43
3. 7.09
4. 7.76
5. 7.50

---

- measured_target: recombinant GPR52 (Homo sapiens)
- Construct: expressed in transfected cells
- test_method_notes: HTRF cAMP assay for direct cAMP measurement
- Format: cell-based
- settings: mean EC50; CHO-K1 or HEK293 cells stably expressing recombinant GPR52
pEC50: −log10 of the molar value.
Label Yes when pEC50 >= 8; otherwise No.

# count of solved cases: 8
• COCC(COC)NC(=O)c1cccc2c1CCN2c1cc(Cc2cc(F)c(F)c(F)c2)ccn1 = No
• COc1ccc(Cc2ccnc(N3CCc4c(C(=O)NCCF)cccc43)c2)cc1F = Yes
• O=C(N[C@H]1CCOC1)c1cccc2c1CCN2c1cncc(Cc2cccc(C(F)(F)F)c2)c1 = Yes
• COc1ccc(Cc2ccnc(N3CCc4c3ccc(F)c4C(=O)NC[C@@H](F)CO)c2)cc1F = No
• CC(=O)Oc1cccc(Cc2ccnc(N3CCc4c(C(N)=O)cccc43)c2)c1 = No
• COC[C@@H](O)CNC(=O)c1cccc2c1CCN2c1ccnc(Cc2cc(F)c(F)c(F)c2)c1 = No
• NC(=O)c1cccc2c1CCN2c1cc(Cc2cnc3ccccc3c2)ccn1 = No
• O=C(NCCO)c1cccc2c1CCN2c1cncc(Cc2cccc(C(F)(F)F)c2)n1 = No

Query: # bool: pEC50 of Cn1cc(NC(=O)c2cccc3c2CCN3c2cc(Cc3cc(F)c(F)c(F)c3)ccn2)cn1 >= 8
Reply: No

Query: What do we get for N#CCCNC(=O)c1cccc2c1CCN2c1cc(Cc2cccc(C(F)(F)F)c2)ccn1 ?
Reply: No

Query: What do we get for O=C(NC[C@H](O)C(F)(F)F)c1cccc2c1CCN2c1cc(Cc2cc(F)c(F)c(F)c2)ccn1 ?
Reply: No

Query: What do we get for COc1ccc(Cc2ccnc(N3CCc4c(C(=O)NCCO)cccc43)c2)cc1F ?
Reply: Yes

Query: What do we get for NC(=O)c1cccc2c1CCN2c1cc(Cc2ccc(F)c(CO)c2)ccn1 ?
Reply: No

---

- measured_target: recombinant GPR52 (Homo sapiens, UniProt Q9Y2T5)
- test_method_notes: HTRF cAMP assay for direct cAMP measurement
- settings: mean EC50; CHO-K1 or HEK293 cells stably expressing recombinant GPR52
parameter: EC50 (nM)
Answers are plain numbers, in nM.

Quick batch: EC50 for everything below.
1. CC(=O)c1ccc(Cc2ccnc(N3CCc4c(C(N)=O)cccc43)c2)cc1
2. NC(=O)c1cccc2c1CCN2c1cc(Cc2cnc(F)c(F)c2)ccn1
3. O=C(NCC1(CO)COC1)c1c(F)ccc2c1CCN2c1cc(Cc2cc(F)c(F)c(F)c2)ccn1
4. O=C(NC[C@@H](F)CO)c1cccc2c1CCN2c1cc(Cc2cc(F)c(F)c(F)c2)ccn1

Reply:
1. 16
2. 61.6
3. 55.9
4. 12.2

---

- test_method_notes: Brain penetration (plasma and brain exposure)
- Type: in vivo, mouse
- settings: PO dose 10 mg/kg; male C57BL6 mice; 60 minute time point
- Description: Plasma and brain exposure were evaluated to determine the brain penetration of compounds described herein. Male C57BL6 mice were administered a single per oral (PO) dose of compound at 3 or 10 mg/kg (as a free base) formulated in 20% HPCD in 0.9% NaCl. Blood and brain samples were collected 60 minutes post-dose (n=3-6 animals). […] Analyte plasma and brain concentrations were determined by LC/MS/MS.
Label True when Brain/Plasma Ratio >= 3; otherwise False.

Query: # bool: Brain/Plasma Ratio of CC(=O)c1cccc(Cc2ccnc(N3CCc4c(C(N)=O)cccc43)c2)c1 [Compound 78] >= 3
Reply: False

Query: What do we get for COc1ccc(Cc2ccnc(N3CCc4c(C(=O)NCCO)cccc43)c2)cc1F [Compound 69] ?
Reply: False

Query: What do we get for O=C(NCCO)c1cccc2c1CCN2c1cc(Cc2cc(F)cc(Cl)c2)ccn1 [Compound 43] ?
Reply: True

Query: What do we get for O=C(NC[C@@H](F)CO)c1cccc2c1CCN2c1cc(Cc2cc(F)c(F)c(F)c2)ccn1 [Compound 166] ?
Reply: False

Query: What do we get for NC(=O)c1cccc2c1CCN2c1cc(Cc2cc(F)cc(Cl)c2)ccn1 [Compound 42] ?
Reply: True

Query: What do we get for COc1ccc(Cc2ccnc(N3CCc4c(C(N)=O)cccc43)c2)cc1F [Compound 54] ?
Reply: True

---

- measured_target: recombinant GPR52 (Homo sapiens, UniProt Q9Y2T5)
- test_method_notes: HTRF cAMP assay for direct cAMP measurement
- settings: mean EC50; CHO-K1 or HEK293 cells stably expressing recombinant GPR52
// classify: if (EC50 < 40 nM) Yes else No

- NC(=O)c1cccc2c1CCN2c1cc(Sc2cccc(C(F)(F)F)c2)ccn1 [Compound 30]: No
- NC(=O)c1cccc2c1CCN2c1cc(Cc2ccc(O)c(F)c2)ccn1 [Compound 97]: Yes
- O=C(N[C@H]1CCOC1)c1cccc2c1CCN2c1cccc(Cc2cccc(C(F)(F)F)c2)n1 [Compound 2]: No

Query: A record lists O=C(N[C@H]1CCOC1)c1cccc2c1CCN2c1cc(Cc2cccc(C(F)(F)F)c2)ccn1 [Compound 4] . Is its EC50 below 40 nM?
Reply: Yes

Query: What do we get for O=C(Nc1cnn(CCO)c1)c1cccc2c1CCN2c1cc(Cc2cc(F)c(F)c(F)c2)ccn1 [Compound 118] ?
Reply: Yes

Query: What do we get for CNC(=O)c1cc(Cc2ccnc(N3CCc4c(C(N)=O)cccc43)c2)ccc1F [Compound 59] ?
Reply: No

Query: What do we get for NC(=O)c1cccc2c1CCN2c1cc(Cc2cc3ccccc3o2)ccn1 [Compound 119] ?
Reply: Yes

Query: What do we get for COc1ccc(Cc2ccnc(N3CCc4c(C(=O)NC5CCN(CCO)CC5)cccc43)c2)cc1F [Compound 91] ?
Reply: Yes

Query: What do we get for NC(=O)c1cccc2c1CCN2c1cc(Cc2ccc3c(c2)OCCCO3)ccn1 [Compound 96] ?
Reply: No
